Listed here: items and their measured melting point.
Where a name gives a salt, the structure may show the parent alone.
Readout Label: melting point

>>> print(df.to_string())
                                   compound  readout_label      obs_value
0  CCN1CC(O)(c2cccc(Cl)c2F)C1 (as salt: fumaric acid salt)  melting point  172 to 173 °C
1  COC1(c2cccc(F)c2F)CNC1 (as salt: oxalic acid salt)  melting point  141 to 142 °C
2  CCN1CC(O)(c2cc(F)cc(F)c2)C1 (as salt: fumaric acid salt)  melting point  140 to 141 °C
3  CCN1CC(O)(c2cccc(F)c2F)C1 (as salt: fumaric acid salt)  melting point  148 to 150 °C
4  CCN1CC(O)(c2ccc(F)c(F)c2)C1 (as salt: fumaric acid salt)  melting point  177 to 179 °C
5  CCN1CC(O)(c2cc(F)cc(Cl)c2)C1 (as salt: fumaric acid salt)  melting point  166 to 168 °C
6  CCN1CC(OC)(c2cccc(F)c2F)C1 (as salt: oxalic acid salt)  melting point  147 to 148 °C
